# Tested on: Trypanosoma cruzi
# test details: Trypanosoma cruzi phosphomannomutase and mannose-1-phosphate guanylyltransferase assay
# Format: functional
# Parameters: scale not given: direction of the effect not stated beside the values
# experimental conditions: 10 µM
readout name: Percent Effect
Give the figure together with its unit, number first.

Examples with their reported Percent Effect follow.
CCOC(=O)NC(C(=O)NCc1ccc(N2CCCCC2)nc1)C(C)C (stereo unspecified) ... -5.94%
O=S1(=O)CCN(Cc2cccnc2)[C@H]2CCN(c3ncccn3)CC[C@H]21 ... -3.91%
COc1ccc(C2CCCCCN2S(=O)(=O)N(C)C)cc1 (stereo unspecified) ... -0.291%
Cc1nc(C)n(CC2CCCN(c3ncnc4[nH]ccc34)C2)n1 (stereo unspecified) ... -4.21%
COc1ccccc1CN1CC[C@]2(C[C@H](OC)CO2)C1 ... -4.52%
COc1c(C2CCCN2Cc2cc(C)no2)c(C)nn1C (stereo unspecified) ... -5.11%
O=C(c1ccc[nH]1)N1CCCC2(CCN(c3ccsc3)C2=O)C1 (stereo unspecified) ... -3.06%
CNS(=O)(=O)c1cccc(C(C)NCc2ccccc2)c1 (stereo unspecified) ... -5.08%

q: Request the reported Percent Effect associated with "Cc1cnn(C2CN(Cc3nc(C(C)(C)C)no3)C2)c1"
a: 3.56%

q: Need Percent Effect of "O=C(NC[C@@H]1CCCN1)c1cc(COc2cccc(C(F)(F)F)c2)[nH]n1" , thanks.
a: 2.62%

q: Query: Percent Effect; subject: CN(Cc1ccco1)C(=O)C1CSCN1C(=O)c1cccnc1 (stereo unspecified)
a: 0.467%
